test system: Zika virus NS2B-NS3 protease (unlinked complex); assay: Primary screen GU Rhodamine qHTS for Zika virus inhibitors: Unlinked NS2B-NS3 protease assay (AID 1347159); settings: Recombinant ZIKV NS2B-NS3 protease, Rhodamine110 substrate fluorescence; series mostly up to 107 µM; also: % is scaled to controls: 0 for no effect and ±100 for the full control effect; nearly all actives have a fitted effect of over 60% in size
Inconclusive results are not listed. The source made the active and inactive calls. Calls follow the shape of the dose curve; as a rule, active = well fitted inhibition curve with a large enough effect; inconclusive = small, poorly fitted or top-dose-only effect; inactive = no such curve, though single readings can be large or run the other way.
MEASURED_ATTRIBUTE: activity change, negative = inhibition

Solved entries (count: 4):
* CCC(C(=O)NC(=O)NC(C)=O)c1ccccc1 (centres undefined) | inactive
* O=C(CCC1CCN(Cc2ccccc2)CC1)c1ccc2c(c1)NCCCC2 | inactive
* N[C@@H](Cn1ccc(=O)c(O)c1)C(=O)O | 13% [at 11.5 µM] (inactive)
* C=CC[N+]1([C@H]2C[C@H]3[C@@H]4CC[C@H]5C[C@H](OC(C)=O)[C@@H](N6CCCCC6)C[C@]5(C)[C@H]4CC[C@]3(C)[C@H]2OC(=O)CC)CCCCC1 | inactive

API: value(readout=activity change, negative = inhibition, system=Zika virus NS2B-NS3 protease (unlinked complex)) for record "CCOC(=O)Cn1cccc1-c1nc(-c2ccc(OC)cc2)c(-c2ccc(OC)cc2)s1"
inactive

API: value(readout=activity change, negative = inhibition, system=Zika virus NS2B-NS3 protease (unlinked complex)) for record "OC1(c2ccc(Cl)c(C(F)(F)F)c2)CCN(CCCC(c2ccc(F)cc2)c2ccc(F)cc2)CC1"
inactive

---

test system: MKL-2; test: qHTS assay to identify novel small-molecules to repurpose for Merkel cell carcinoma treatment (AID 1296009); conditions: MCC and control cell lines, CellTiter-Glo viability, 72 h; series mostly up to 46 µM; also: nearly all actives have a fitted effect of over 60% in size
Results filed as inconclusive are left out. Activity calls are given as the source filed them. Calls follow the shape of the dose curve; as a rule, active = well fitted inhibition curve with a large enough effect; inconclusive = small, poorly fitted or top-dose-only effect; inactive = flat fitted curve, though single readings scatter.
Answer with one of the outcomes active, inactive

Worked examples, 5 molecules total:
* Oc1ccccc1-c1nnco1 | inactive
* CCOC(=O)c1ccc(OCCN2C[C@H](O)[C@@H](O)[C@H](O)[C@H]2CO)cc1 | inactive
* O=C(O)[C@H](O)[C@@H](O)[C@H](O[C@@H]1O[C@H](CO)[C@H](O)[C@H](O)[C@H]1O)[C@H](O)CO | inactive
* Cc1oc(-c2ccccc2)nc1CCC(=O)c1ccc(CC2SC(=O)NC2=O)cc1 (stereo unspecified) | inactive
* CCC(C(=O)NC(=O)NC(C)=O)c1ccccc1 (stereo unspecified) | inactive

Answer briefly: the call reported for CC(C)C(=O)Nc1cccc(C2CN3CCSC3=N2)c1 (stereo unspecified) in this assay.
inactive

Answer briefly: the call reported for "Oc1ccc(CCNCCCCCCNCCc2ccccc2)cc1O" in this assay.
active

Answer briefly: the call reported for "COc1cc(C=O)ccc1O" in this assay.
inactive

Answer briefly: the call reported for "O=S(=O)(O)c1ccc2nc(-c3ccccc3)[nH]c2c1" in this assay.
inactive

Answer briefly: the call reported for "CC[C@@H]([C@H](C)O)n1ncn(-c2ccc(N3CCN(c4ccc(OC[C@@H]5CO[C@@](Cn6cncn6)(c6ccc(F)cc6F)C5)cc4)CC3)cc2)c1=O" in this assay.
inactive

Answer briefly: the call reported for "CCOC(=O)NNc1nncc2ccccc12" in this assay.
inactive

---

tested on: MCC-26; assay: qHTS assay to identify novel small-molecules to repurpose for Merkel cell carcinoma treatment (AID 1296009); settings: MCC and control cell lines, CellTiter-Glo viability, 72 h; series mostly up to 46 µM; also: nearly all actives have a fitted effect of over 60% in size
Inconclusive results are not listed. Activity calls are given as the source filed them. The call rests on the fitted dose curve; in most records, active means well fitted inhibition curve with a large enough effect; inconclusive means small, poorly fitted or top-dose-only effect; inactive means flat fitted curve, though single readings scatter.
Answer with one of the outcomes active, inactive

* CCc1cccc2c(CCO)c[nH]c12 | inactive
* Cc1cc2nc3ccc(=[N+](C)C)cc-3sc2cc1N | active
* Cc1cc(C(C)(C)C)c(O)c(C(C)(C)C)c1 | inactive
* CCCCCCOC(=O)NC(=N)c1ccc(NCc2nc3cc(C(=O)N(CCC(=O)OCC)c4ccccn4)ccc3n2C)cc1 | inactive
* CSc1ccc(/C=C2/C(C)=C(CC(=O)O)c3cc(F)ccc32)cc1 | inactive

Answer briefly: the call reported for "Nc1ncnc2nc[nH]c12" in this assay.
inactive

Answer briefly: the call reported for "CCNC(=O)NCCCOc1cccc(CN2CCCCC2)c1" in this assay.
inactive

---

tested on: HeLa; test: Primary qHTS to identify gynecologic anti-cancer compounds using libraries of approved drugs and bioactive compounds (AID 1345084); conditions: Gynecologic cancer cell panel viability, ATPlite luminescence, 48 h; series mostly up to 57.5 µM; also: % is scaled to controls: 0 for no effect and ±100 for the full control effect; nearly all actives have a fitted effect of over 55% in size
Results filed as inconclusive are left out. Calls of active or inactive are those of the source. Calls follow the shape of the dose curve; as a rule, active = well fitted cell-killing curve with a large enough effect; inconclusive = small, poorly fitted or top-dose-only effect, or effect the other way; inactive = flat fitted curve, though single readings scatter.
Answer with one of the outcomes Yes = active, No = inactive

Worked examples, 5 molecules total:
• Nc1c[n+](N2CCOCC2)no1 = No
• OCCCc1ccccc1 = No
• Fc1ccc(C(c2ccc(F)cc2)N2CCNCC2)cc1 = No
• CC(=O)OCC[N+](C)(C)C = No
• CCCCNc1ccc(C(=O)OCCN(CC)CC)cc1 = No

Answer briefly: the call reported for CCCCCN(CCCOC)C(=O)C(CCC(=O)O)NC(=O)c1ccc(Cl)c(Cl)c1 (stereo not given) in this assay.
No

Answer briefly: the call reported for "CC(C)C(=O)OCc1cccc(OC(=O)[C@@H]2N3C(=O)[C@@H](NC(=O)Cc4ccccc4)[C@H]3SC2(C)C)c1" in this assay.
No

Answer briefly: the call reported for "CCCCOCCOC(=O)c1cccnc1" in this assay.
No

Answer briefly: the call reported for "COC(=O)c1c(Cl)c(Cl)c(C(=O)OC)c(Cl)c1Cl" in this assay.
No

Answer briefly: the call reported for "CCCCCCCC(=O)[O-].CCCCCCCC(=O)[O-].[Zn+2]" in this assay.
No

Answer briefly: the call reported for CN1C(=O)CC(C)(c2ccccc2)C1=O (stereo not given) in this assay.
No

Answer briefly: the call reported for CC1CCCCN1CCCOC(=O)c1ccc(OC2CCCCC2)cc1 (stereo not given) in this assay.
No

Answer briefly: the call reported for "CC(=O)N[C@@H](CCC(N)=O)C(=O)O" in this assay.
No

Answer briefly: the call reported for "COc1ccc2c(c1)CCCC2=O" in this assay.
No

Answer briefly: the call reported for "CO[C@@]1(NC(=O)CSC[C@@H](N)C(=O)O)C(=O)N2C(C(=O)O)=C(CSc3nnnn3C)CS[C@@H]21" in this assay.
No

Answer briefly: the call reported for "CCCCCCn1c(=O)c2c(ncn2C)n(C)c1=O" in this assay.
No

Answer briefly: the call reported for "Cc1sccc1Br" in this assay.
No

Answer briefly: the call reported for "Cc1ncc([N+](=O)[O-])n1C" in this assay.
No

Answer briefly: the call reported for "Cc1nn(-c2ccccc2)c(C)c1/C=N/N1CCN(Cc2ccccc2)CC1" in this assay.
No

Answer briefly: the call reported for "CC(C)(c1ccc(O)cc1)c1ccc(O)cc1" in this assay.
No

---

assay: Cell Viability - LYMP1-002 - Assay at 16 hr (AID 948); conditions: LYMP1-002 lymphoblastoid cell viability; series mostly up to 92.2 µM;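 also: 0% = DMSO alone and full effect = 92 µM tetraoctylammonium bromide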
Records with an inconclusive call do not appear. Calls of active or inactive are those of the source. The call rests on the fitted dose curve; in most records, active means well fitted cell-killing curve with a large enough effect; inconclusive means small, poorly fitted or top-dose-only effect; inactive means flat fitted curve, though single readings scatter.
Answer with one of the outcomes active, inactive

Worked examples, 5 molecules total:
• CC(C)C(C)(C)C(C)(C)C(C)(C)S = inactive
• O=C(NO)c1ccccc1 = inactive
• O=C(Oc1ccccc1)c1ccccc1O = inactive
• Brc1ccccc1-c1ccccc1 = inactive
• CCCC(=O)c1cc(O)c(O)cc1O = inactive

Let us examine a further case.
Answer briefly: the call reported for CCCCC(CC)COC(=O)c1ccccc1C(=O)O (configuration not stated) in this assay.
inactive

---

system: CP260; experiment: qHTS profiling for inhibitors of Plasmodium falciparum proliferation (AID 504749); also: nearly all actives have a fitted effect of over 60% in size; details: P. falciparum in erythrocytes, SYBR Green DNA, 72 h; series mostly up to 28.7 µM
Results filed as inconclusive are left out. The source made the active and inactive calls. The call rests on the fitted dose curve; in most records, active means well fitted inhibition curve with a large enough effect; inconclusive means small, poorly fitted or top-dose-only effect; inactive means flat fitted curve, though single readings scatter.
Answer with one of the outcomes active, inactive

* CC(NCCC(c1ccccc1)c1ccccc1)c1ccccc1 (stereo not given) | active
* Nc1ncnc2nc[nH]c12 | inactive
* Nc1c2ccccc2nc2ccccc12 | active
* O=S(=O)(O)c1ccc2nc(-c3ccccc3)[nH]c2c1 | inactive

Let us examine a further case.
Answer briefly: the call reported for "Nc1ccc2cc3ccc(N)cc3nc2c1" in this assay.
active

---

test system: HEK293; assay: Cytotoxic Profiling of Annotated Libraries Using Quantitative High-Throughput Screening (AID 1296008); conditions: Five cell lines viability, CellTiter-Glo ATP luminescence, 48-72 h; stronger effect = lower value
Inconclusive results are not listed.
MEASURED_ATTRIBUTE: max response (%)
Write it as a number; the unit % goes unstated.

API: value(readout=max response, system=HEK293) for record "COc1ccc2cc(C=O)ccc2c1"
0.484

API: value(readout=max response, system=HEK293) for record CC(C)C(=O)Nc1cccc(C2CN3CCSC3=N2)c1 (stereo not drawn)
-1.66

API: value(readout=max response, system=HEK293) for record "Cc1ccc(O)cc1"
0.45

API: value(readout=max response, system=HEK293) for record "Cc1oc(=O)oc1COC(=O)[C@@H]1N2C(=O)[C@@H](NC(=O)[C@H](N)c3ccccc3)[C@H]2SC1(C)C"
-0.753

API: value(readout=max response, system=HEK293) for record "CCOC(=O)N1CCC(Nc2ccc(Cl)cc2N)CC1"
-13.9
